target: G-protein coupled receptor 35 (Homo sapiens); assay: inhibition of zaprinast-stimulated GPR35 beta-arrestin translocation – imaging, U2OS, beta-arrestin-GFP, zaprinast agonist, primary screen (AID 2058); settings: zaprinast antagonism, at 10 µM, stronger effect = higher value
The whole screen tested about 290,000 compounds, of which about 150 (0.052%) were called active. The sample holds actives, similar compounds and a random draw of the others, so the mix is not that of the screen. Results with a measured potency or affinity are listed apart.
Please enter t where inhibition is greater than or equal to 20%, and f where it is lower.

>>> df
                              line_notation                            assayed_target  class
0  COc1ccc(C(=O)/C=C/c2ccc(N(C)C)cc2)c(OC)c1  G-protein coupled receptor 35 (Homo sapiens)      t
1    CN(C)c1ccc(/C=C/C(=O)c2cc(Cl)ccc2O)cc1  G-protein coupled receptor 35 (Homo sapiens)      t
2     O=C(/C=C/c1ccc2ccccc2n1)c1cc(Cl)ccc1O  G-protein coupled receptor 35 (Homo sapiens)      f
3            O=C(/C=C/c1cccs1)c1cc(Cl)ccc1O  G-protein coupled receptor 35 (Homo sapiens)      f
4           O=C(/C=C/c1ccncc1)c1cc(Cl)ccc1O  G-protein coupled receptor 35 (Homo sapiens)      t
5  CSC1=NSC2=NC(=O)/C(=C/c3coc4ccccc4c3=O)C(=N)N12  G-protein coupled receptor 35 (Homo sapiens)      f

---

Catalogue of inhibition readings, one per entry.
molecular target: G-protein coupled receptor 35 (Homo sapiens); assay: inhibition of zaprinast-stimulated GPR35 beta-arrestin translocation – imaging, U2OS, beta-arrestin-GFP, zaprinast agonist, primary screen (AID 2058); conditions: zaprinast antagonism, at 10 µM, stronger effect = higher value
The whole screen tested about 290,000 compounds, of which about 150 (0.052%) were called active. Only a selection was taken, and actives are over-represented in it overall. Measured potencies and affinities stand elsewhere.
observable: inhibition (%)

>>> df
                                   molecule  readout_units  reported_value
0  CC(/C=C1\SC(=O)N(CC(=O)Nc2ccc(O)cc2)C1=O)=C\c1ccccc1              %            -6.3
1  CC1=CC(=C(C#N)c2nc3ccccc3s2)C=C(C)N1CC1CCCO1 (stereo not given)              %             3.3
2    S=c1nc(-c2ccccc2)n(Cc2cccnc2)c2c1CCCC2              %            14.8
3  CC(/C=C1\SC(=S)N(CCC(=O)Nc2ccc(O)cc2)C1=O)=C\c1ccccc1              %             0.1
4  COC(=O)c1cc(NC2c3ccccc3C(=O)N2c2cccnc2)cc(C(=O)OC)c1 (stereo not given)              %              -4
5  CCC(=O)Nc1ccc(C(=O)NNC(=O)c2ccc(C)cc2)cc1              %             9.3
6  C/C(=N/NC(=O)CNC(=O)C1COc2ccccc2O1)c1cccc(O)c1 (stereo not given)              %             0.2
7  COCC(C)NC(=S)Nc1ccccc1[N+](=O)[O-] (stereo not given)              %            -3.3
8  Cc1ccc(C(=O)N(CC(=O)NC2CCCC2)c2ccccc2C)s1              %             4.4
9  CCc1ccc2[nH]c(=O)c(CN(CCN3CCOCC3)C(=O)Nc3ccccc3F)cc2c1              %             8.5
